System: Campylobacter coli
Assay: Antibacterial activity against Campylobacter coli assessed as resistant isolates by disk diffusion method
Assay type: functional
measured-quantity: Activity

[[record]]
smiles_code = "CC[C@H]1OC(=O)[C@H](C)[C@@H](O[C@H]2C[C@@](C)(OC)[C@@H](O)[C@H](C)O2)[C@H](C)[C@@H](O[C@@H]2O[C@H](C)C[C@H](N(C)C)[C@H]2O)[C@](C)(O)C[C@@H](C)CN(C)[C@H](C)[C@@H](O)[C@]1(C)O"
result = "38.9%"

[[record]]
smiles_code = "CN(C)[C@@H]1C(O)=C(C(N)=O)C(=O)[C@@]2(O)C(O)=C3C(=O)c4c(O)cccc4[C@@](C)(O)[C@H]3C[C@@H]12"
result = "66.7%"

[[record]]
smiles_code = "CCn1cc(C(=O)O)c(=O)c2ccc(C)nc21"
result = "83.3%"


====

Tested on: Campylobacter sp.
Test: Antibacterial activity against erythromycin resistant Campylobacter sp. assessed as resistance breakpoint by CLSI method
Assay type: functional
measured-quantity: Activity (%)

[[record]]
smiles_code = "CCC[C@@H]1C[C@@H](C(=O)N[C@@H]([C@H]2O[C@H](SC)[C@H](O)[C@@H](O)[C@H]2O)[C@H](C)Cl)N(C)C1"
result = 89.5

[[record]]
smiles_code = "O=C(N[C@H](CO)[C@H](O)c1ccc([N+](=O)[O-])cc1)C(Cl)Cl"
result = 0

[[record]]
smiles_code = "C[C@@H](O)[C@H]1C(=O)N2C(C(=O)O)=C(S[C@@H]3CN[C@H](C(=O)N(C)C)C3)[C@H](C)[C@H]12"
result = 0

[[record]]
smiles_code = "CCn1cc(C(=O)O)c(=O)c2cc(F)c(N3CCNCC3)cc21"
result = 94.7

[[record]]
smiles_code = "CCn1cc(C(=O)O)c(=O)c2ccc(C)nc21"
result = 94.7

[[record]]
smiles_code = "CN(C)c1cc(NC(=O)CNC(C)(C)C)c(O)c2c1C[C@H]1C[C@H]3[C@H](N(C)C)C(O)=C(C(N)=O)C(=O)[C@@]3(O)C(O)=C1C2=O"
result = 0

[[record]]
smiles_code = "C[C@H]1COc2c(N3CCN(C)CC3)c(F)cc3c(=O)c(C(=O)O)cn1c23.C[C@H]1COc2c(N3CCN(C)CC3)c(F)cc3c(=O)c(C(=O)O)cn1c23.O"
result = 78.9

[[record]]
smiles_code = "CC[C@H]1OC(=O)[C@H](C)[C@@H](O[C@H]2C[C@@](C)(OC)[C@@H](O)[C@H](C)O2)[C@H](C)[C@@H](O[C@@H]2O[C@H](C)C[C@H](N(C)C)[C@H]2O)[C@](C)(O)C[C@@H](C)C(=O)[C@H](C)[C@@H](O)[C@]1(C)O"
result = 100


====

System: Campylobacter sp.
Experiment: Antibacterial activity against erythromycin susceptible Campylobacter sp. by agar plate dilution method
Assay type: functional
measured-quantity: MIC50 (µg/mL)

[[record]]
compound = "COc1c(N2C[C@@H]3CCCN[C@@H]3C2)c(F)cc2c(=O)c(C(=O)O)cn(C3CC3)c12"
measured_quantity = "MIC50"
u = "µg/mL"
cmp = "≤"
result = 0.03

[[record]]
compound = "CCn1cc(C(=O)O)c(=O)c2cc(F)c(N3CCNCC3)cc21"
measured_quantity = "MIC50"
u = "µg/mL"
cmp = "="
result = 8

[[record]]
compound = "CC[C@H]1OC(=O)[C@H](C)[C@@H](O[C@H]2C[C@@](C)(OC)[C@@H](O)[C@H](C)O2)[C@H](C)[C@@H](O[C@@H]2O[C@H](C)C[C@H](N(C)C)[C@H]2O)[C@](C)(O)C[C@@H](C)CN(C)[C@H](C)[C@@H](O)[C@]1(C)O"
measured_quantity = "MIC50"
u = "µg/mL"
cmp = "="
result = 0.25

[[record]]
compound = "CC[C@H]1OC(=O)[C@H](C)C(=O)[C@H](C)[C@@H](O[C@@H]2O[C@H](C)C[C@H](N(C)C)[C@H]2O)[C@](C)(OC)C[C@@H](C)C(=O)[C@H](C)[C@H]2N(CCCCn3cnc(-c4cccnc4)c3)C(=O)O[C@]12C"
measured_quantity = "MIC50"
u = "µg/mL"
cmp = "="
result = 0.064

[[record]]
compound = "O=C(O)c1cn(C2CC2)c2cc(N3CCNCC3)c(F)cc2c1=O"
measured_quantity = "MIC50"
u = "µg/mL"
cmp = "="
result = 0.5

[[record]]
compound = "CC1COc2c(N3CCN(C)CC3)c(F)cc3c(=O)c(C(=O)O)cn1c23 (configuration not stated)"
measured_quantity = "MIC50"
u = "µg/mL"
cmp = "="
result = 0.25

[[record]]
compound = "CCn1cc(C(=O)O)c(=O)c2ccc(C)nc21"
measured_quantity = "MIC50"
u = "µg/mL"
cmp = "="
result = 2

